B1: Androgen receptor, residues 557 to 632; numbered along this chain, P10275 (parent)
chain: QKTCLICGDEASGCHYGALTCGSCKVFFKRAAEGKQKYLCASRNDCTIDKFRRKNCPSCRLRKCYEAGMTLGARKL

Variants of: B1
procedureSummary: abundance fitness (aPCA) (normalised: wild type 0, dead -1); higher = more abundant; growth selection in yeast, the domain comes from the species named
assayConditions: Homo sapiens
Consider the following partition of reported abundance fitness into named classes: bucket A = under -0.1, bucket B = from -0.1 up to -0.04, bucket C = -0.04 and over

Use these answered entries as a reference point.
# bin lookup: classify `C46P` by its abundance fitness
bucket A

Which class is correct for the following variant? `A41G`
bucket B

Which class holds `Y38K` ?
bucket B

Sort into band: `H15A`
bucket A

Which abundance fitness category applies to `H15K` here?
bucket A

Dear colleague, I would appreciate it if you could identify the bin for `E33G` and reply at your convenience.
bucket C

Lab note: next variant to report on.
Lab note: sort `C7W` into the matching abundance fitness band.
bucket A
